- TARGET ENTITY: T1, CD32B (FcγRII-B) (UniProt P31994 43-217, limits assumed)
- T1 sequence (looked up): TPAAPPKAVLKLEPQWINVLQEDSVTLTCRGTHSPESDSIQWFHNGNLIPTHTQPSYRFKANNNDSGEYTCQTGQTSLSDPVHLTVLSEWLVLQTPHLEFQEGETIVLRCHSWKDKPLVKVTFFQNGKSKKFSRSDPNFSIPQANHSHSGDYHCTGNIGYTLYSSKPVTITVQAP
- EXPERIMENT NOTES: method not stated at Table 3
Reported binding relative to wild-type Fc values for a set of binders

{"BINDER": "Fc variant F243L D270E P396L Q419H (other, UniProt P01857-1 104-330, looked up, domain: Fc) DKTHTCPPCPAPELLGGPSVFLLPPKPKDTLMISRTPEVTCVVVDVSHEEPEVKFNWYVDGVEVHNAKTKPREEQYNSTYRVVSVLTVLHQDWLNGKEYKCKVSNKALPAPIEKTISKAKGQPREPQVYTLPPSRDELTKNQVSLTCLVKGFYPSDIAVEWESNGQPENNYKTTPLVLDSDGSFFLYSKLTVDKSRWQHGNVFSCSVMHEALHNHYTQKSLSLSPGK", "binding relative to wild-type Fc, fold": 0.26}
{"BINDER": "Fc variant R255L D270E P396L (other, UniProt P01857-1 104-330, looked up, domain: Fc) DKTHTCPPCPAPELLGGPSVFLFPPKPKDTLMISLTPEVTCVVVDVSHEEPEVKFNWYVDGVEVHNAKTKPREEQYNSTYRVVSVLTVLHQDWLNGKEYKCKVSNKALPAPIEKTISKAKGQPREPQVYTLPPSRDELTKNQVSLTCLVKGFYPSDIAVEWESNGQPENNYKTTPLVLDSDGSFFLYSKLTVDKSRWQQGNVFSCSVMHEALHNHYTQKSLSLSPGK", "binding relative to wild-type Fc, fold": 0.87}
{"BINDER": "Fc mutant 18: F243L R292P Y300L V305I P396L (other, UniProt P01857-1 104-330, looked up, domain: Fc; Same substitutions as the Fc of ch4D5-FcMT1) DKTHTCPPCPAPELLGGPSVFLLPPKPKDTLMISRTPEVTCVVVDVSHEDPEVKFNWYVDGVEVHNAKTKPPEEQYNSTLRVVSILTVLHQDWLNGKEYKCKVSNKALPAPIEKTISKAKGQPREPQVYTLPPSRDELTKNQVSLTCLVKGFYPSDIAVEWESNGQPENNYKTTPLVLDSDGSFFLYSKLTVDKSRWQQGNVFSCSVMHEALHNHYTQKSLSLSPGK", "binding relative to wild-type Fc, fold": 1.38}
{"BINDER": "Fc variant R255L D270E R292G P396L (other, UniProt P01857-1 104-330, looked up, domain: Fc) DKTHTCPPCPAPELLGGPSVFLFPPKPKDTLMISLTPEVTCVVVDVSHEEPEVKFNWYVDGVEVHNAKTKPGEEQYNSTYRVVSVLTVLHQDWLNGKEYKCKVSNKALPAPIEKTISKAKGQPREPQVYTLPPSRDELTKNQVSLTCLVKGFYPSDIAVEWESNGQPENNYKTTPLVLDSDGSFFLYSKLTVDKSRWQQGNVFSCSVMHEALHNHYTQKSLSLSPGK", "binding relative to wild-type Fc, fold": 0.65}
{"BINDER": "Fc variant F243L P247L D270E N421K (other, UniProt P01857-1 104-330, looked up, domain: Fc) DKTHTCPPCPAPELLGGPSVFLLPPKLKDTLMISRTPEVTCVVVDVSHEEPEVKFNWYVDGVEVHNAKTKPREEQYNSTYRVVSVLTVLHQDWLNGKEYKCKVSNKALPAPIEKTISKAKGQPREPQVYTLPPSRDELTKNQVSLTCLVKGFYPSDIAVEWESNGQPENNYKTTPPVLDSDGSFFLYSKLTVDKSRWQQGKVFSCSVMHEALHNHYTQKSLSLSPGK", "binding relative to wild-type Fc, fold": 0.32}
